Entry source: PubChem BioAssay (EPA / NIEHS)

Biological target: chicken Estrogen Receptor (ERa), ESR1 (gene 396099) (UniProt P06212)
Sequence (P06212 whole entry, looked up): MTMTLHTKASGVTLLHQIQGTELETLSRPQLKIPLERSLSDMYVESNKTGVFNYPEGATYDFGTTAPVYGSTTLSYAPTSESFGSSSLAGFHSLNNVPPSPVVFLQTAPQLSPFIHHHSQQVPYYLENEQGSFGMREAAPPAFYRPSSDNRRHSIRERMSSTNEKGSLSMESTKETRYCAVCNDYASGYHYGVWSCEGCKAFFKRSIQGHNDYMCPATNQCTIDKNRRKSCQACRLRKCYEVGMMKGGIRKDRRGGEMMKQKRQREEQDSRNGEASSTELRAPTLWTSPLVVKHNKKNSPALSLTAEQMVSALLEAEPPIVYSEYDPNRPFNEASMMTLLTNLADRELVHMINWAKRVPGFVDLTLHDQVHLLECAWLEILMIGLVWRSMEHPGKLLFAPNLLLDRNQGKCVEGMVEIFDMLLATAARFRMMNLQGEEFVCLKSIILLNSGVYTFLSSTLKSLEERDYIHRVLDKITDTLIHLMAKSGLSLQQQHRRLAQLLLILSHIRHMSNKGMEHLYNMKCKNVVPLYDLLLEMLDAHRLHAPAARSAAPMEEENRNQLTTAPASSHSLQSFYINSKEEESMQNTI
Experiment: ATG_chERa_XSP2: Attagene TRANS-FACTORIAL Multi-Species (XSP2) HepG2 Assay for chicken Estrogen Receptor (ERa) (AID 2283817);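 further: actives raise reporter signal above DMSO so AC50 reflects ER activation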
Records with an inconclusive call do not appear. Active and inactive are the calls of the source. How the source made its calls: active means hit-call score of the fitted dose curve at least 0.9, where 1 is the maximum; inconclusive means response in the unintended direction; inactive means score below 0.9.
Please reply with one of these outcomes: 1.0 for active, 0.0 for inactive

Past entries and their recorded results:
O=C(O)C(F)(F)C(F)(F)C(F)(F)C(F)(F)C(F)(F)C(F)(F)C(F)(F)F : 1.0
CCCN(CCC)c1c([N+](=O)[O-])cc(C(F)(F)F)cc1[N+](=O)[O-] : 0.0

--- query ---
Query: What is the recorded call for this compound in the test? Oc1ccc(Cl)cc1Cc1ccccc1
Result: 0.0

----------
Read-out: Cyclin Dependent Kinase Inhibitor 1A (CDKN1A), CDKN1A (gene 1026)
Assay: LTEA_HepaRG_CDKN1A: Life Technologies and Expression Analysis (LTEA) Assay for Cyclin Dependent Kinase Inhibitor 1A (CDKN1A) using HepaRG (AID 2283450)
Conditions: mRNA level, 48 h; actives raise or lower the signal
The source made the active and inactive calls. How the source made its calls: active means hit-call score of the fitted dose curve at least 0.9, where 1 is the maximum; inactive means score below 0.9.
Please reply with one of these outcomes: Yes for active, No for inactive

Past entries and their recorded results:
CCOC1Oc2ccc(OS(C)(=O)=O)cc2C1(C)C (centres undefined) : Yes
Oc1ccc(Cl)cc1Cc1ccccc1 : No

Query: What is the recorded call for this compound in the test? COP(=O)(OC)OC=C(Cl)Cl
Result: No

Query: What is the recorded call for this compound in the test? C[C@H]1[C@H](c2ccc(Cl)cc2)SC(=O)N1C(=O)NC1CCCCC1
Result: Yes

Query: What is the recorded call for this compound in the test? CC(C)(C)C(O)C(Oc1ccc(Cl)cc1)n1cncn1 (centres undefined)
Result: No

Query: What is the recorded call for this compound in the test? O=S1OCC2C(CO1)C1(Cl)C(Cl)=C(Cl)C2(Cl)C1(Cl)Cl (centres undefined)
Result: Yes

Query: What is the recorded call for this compound in the test? COc1nn(CSP(=S)(OC)OC)c(=O)s1
Result: No

Query: What is the recorded call for this compound in the test? CCC(C)(NC(=O)c1cc(Cl)c(C)c(Cl)c1)C(=O)CCl (centres undefined)
Result: No

Query: What is the recorded call for this compound in the test? CCCN(CCC)c1c([N+](=O)[O-])cc(C(F)(F)F)cc1[N+](=O)[O-]
Result: No

----------
Test: APR_HepG2_MitoticArrest_72hr: Apredica 72-hour HepG2 Assay for Mitotic Arrest (AID 2282918)
Conditions: high-content imaging, actives raise or lower the signal
Activity calls are given as the source filed them. How the source made its calls: active means hit-call score of the fitted dose curve at least 0.9, where 1 is the maximum; inactive means score below 0.9.
Please reply with one of these outcomes: active, inactive

O=C1c2ccccc2C(=O)N1SC(Cl)(Cl)Cl : inactive

Query: What is the recorded call for this compound in the test? CC1(c2ccc(Oc3ccccc3)cc2)OC(=O)N(Nc2ccccc2)C1=O (stereo unspecified)
Result: inactive

Query: What is the recorded call for this compound in the test? Cc1cc(C)nc(NC(=O)NS(=O)(=O)c2ccccc2C(=O)OC2COC2)n1
Result: inactive

Query: What is the recorded call for this compound in the test? CCOC1Oc2ccc(OS(C)(=O)=O)cc2C1(C)C (stereo unspecified)
Result: inactive

Query: What is the recorded call for this compound in the test? N#Cc1c(Cl)c(Cl)c(Cl)c(C#N)c1Cl
Result: inactive

Query: What is the recorded call for this compound in the test? O=[N+]([O-])/N=C1\NCCN1Cc1ccc(Cl)nc1
Result: inactive

Query: What is the recorded call for this compound in the test? CCOCN(C(=O)CCl)c1c(C)cccc1CC
Result: active

Query: What is the recorded call for this compound in the test? CCCN(CCC)c1c([N+](=O)[O-])cc(C(F)(F)F)cc1[N+](=O)[O-]
Result: inactive

Query: What is the recorded call for this compound in the test? CCC(C)(NC(=O)c1cc(Cl)c(C)c(Cl)c1)C(=O)CCl (stereo unspecified)
Result: inactive
